- Test system: COLO 205 colon
- measurementDescription: NCI-60 one-dose screen, 48 h
- experimentalSetup: 10 µM
Compounds without any hit were thinned out: in the full panel of roughly 83,000, 20% have a hit. Activity calls are given as the source filed them. How the source made its calls: active means growth percent below 10; inactive means the rest.
Outcomes you can answer with include only these: Yes for active, No for inactive

Below, 2 compounds whose answers are already recorded.
{"compound": "CC(=O)[O][Hg][c]1c(C)c(C)cc(C)c1C", "category": "Yes"}
{"compound": "C=C1C(=O)O[C@@H]2C[C@@H](C)[C@@H]3C=CC(=O)[C@@]3(C)[C@@H](O)[C@H]12", "category": "Yes"}

For "NNc1ccccc1" , what call appears in the results of this test?
No

Also "NC(=O)c1cc([N+](=O)[O-])c(Cl)c([N+](=O)[O-])c1" ?
Yes

Also CC(C)C1(NC(=O)C2CC3c4cccc5[nH]cc(c45)CC3N(C)C2)OC2(O)C3CCCN3C(=O)C(Cc3ccccc3)N2C1=O (configuration not stated) ?
No

###

growth for assorted compounds
- System: NCI-H522 lung
- measurementDescription: NCI-60 one-dose screen, 48 h (100 = growth as untreated, 0 = no growth, -100 = all killed)
- experimentalSetup: 10 µM
The panel holds about 83,000 compounds, 20% with a hit somewhere; the sample as a whole holds those more often.
Quick note: give the figure in %, leave out the unit.

{"compound": "O=C(CBr)Nc1ccccc1", "growth / %": -84}
{"compound": "Cc1cc(C(C)(C)c2ccc(O)c(C)c2)ccc1O", "growth / %": 83.8}
{"compound": "C/C1=C\\[C@H](C)C[C@H](C)OC(=O)C[C@H](c2ccc(O)cc2)NC(=O)[C@@H](Cc2c(Br)[nH]c3ccccc23)N(C)C(=O)[C@H](C)NC(=O)[C@@H](C)C1", "growth / %": -62.5}
{"compound": "CS(=N)(=O)CCC(N)C(=O)O (stereo unspecified)", "growth / %": 96.9}
{"compound": "CC1CCC2(OC1)OC1C(O)C3C4CCC5CC(OC6OC(CO)C(OC7OC(CO)C(O)C(OC8OCC(O)C(O)C8O)C7OC7OC(CO)C(O)C(OC8OC(CO)C(O)C(O)C8O)C7O)C(O)C6O)C(O)CC5(C)C4CCC3(C)C1C2C (stereo unspecified)", "growth / %": -71.4}

Please provide the recorded growth for "O=C1C(=O)c2ccccc2-c2ccccc21" , tested on NCI-H522 lung.
-58.5

###

- Tested on: HCC-2998 colon
- measurementDescription: NCI-60 one-dose screen, 48 h (100 = growth as untreated, 0 = no growth, -100 = all killed)
- experimentalSetup: 10 µM
Compounds without any hit were thinned out: in the full panel of roughly 83,000, 20% have a hit.
Values of growth strictly less than 80% map to condition met, and values of at least 80% map to condition not met.

Below, 5 compounds whose answers are already recorded.
{"compound": "NC(=O)c1cc([N+](=O)[O-])c(Cl)c([N+](=O)[O-])c1", "category": "condition not met"}
{"compound": "Cc1cc(C(C)(C)c2ccc(O)c(C)c2)ccc1O", "category": "condition not met"}
{"compound": "[O-][n+]1ccccc1S", "category": "condition met"}
{"compound": "COC12C(COC(N)=O)C3=C(C(=O)C(C)=C(N)C3=O)N1CC1C2N1C (stereo unspecified)", "category": "condition met"}
{"compound": "CC(C)(C)OOC(=O)/C=C\\C(=O)OOC(C)(C)C", "category": "condition not met"}

# ---- query compound ----
Please determine if "O=[N+]([O-])c1cc[n+]([O-])c2ccccc12" is below 80% in terms of growth.
condition met
